Reported values of Contraction for individual entries
# Species: Rattus norvegicus
# assay_protocol: Effect on Oxytocin-Induced contractions of rat uterus at 50 uM
# Assay type: functional
reported_endpoint: Contraction (%)

[[record]]
structure_as_smiles = "O=S1(=O)NC(NCc2ccccc2)=Nc2ncc(Cl)cc21"
reported_endpoint = "Contraction"
recorded_number = 98.9

[[record]]
structure_as_smiles = "O=S1(=O)NC(NCC2CCCCC2)=Nc2ncc(Cl)cc21"
reported_endpoint = "Contraction"
recorded_number = 95.1

[[record]]
structure_as_smiles = "C[C@@H](NC1=NS(=O)(=O)c2cc(Cl)cnc2N1)C1CCCCC1"
reported_endpoint = "Contraction"
recorded_number = 50.9

[[record]]
structure_as_smiles = "C[C@H](NC1=NS(=O)(=O)c2cc(Cl)cnc2N1)C1CCCCC1"
reported_endpoint = "Contraction"
recorded_number = 71.4

[[record]]
structure_as_smiles = "C[C@@H](NC1=NS(=O)(=O)c2cc(Cl)cnc2N1)c1ccccc1"
reported_endpoint = "Contraction"
recorded_number = 59.4

[[record]]
structure_as_smiles = "C[C@H](NC1=NS(=O)(=O)c2cc(Cl)cnc2N1)c1ccccc1"
reported_endpoint = "Contraction"
recorded_number = 79.3


* * *

Reported values of log10(EC50) for individual entries
# Organism: Rattus norvegicus
# assay_protocol: Concentration giving 50% relaxation of the 30 mM KCL-induced contraction of rat aorta rings
# Type: functional
# reported_conditions: read-out: ED50 (the source's name)
reported_endpoint: log10(EC50) (log10 of the value in µM)

[[record]]
compound = "CC(C)NC1=NS(=O)(=O)c2cc(Cl)cnc2N1"
recorded_number = 1.16

[[record]]
compound = "O=S1(=O)NC(NCC2CCCCC2)=Nc2ncc(Cl)cc21"
recorded_number = 1.58

[[record]]
compound = "CC(NC1=NS(=O)(=O)c2cc(Cl)cnc2N1)C(C)(C)C (configuration not stated)"
recorded_number = 0.36

[[record]]
compound = "CC(C)C(C)NC1=NS(=O)(=O)c2cc(Cl)cnc2N1 (configuration not stated)"
recorded_number = 1.03

[[record]]
compound = "C[C@@H](NC1=NS(=O)(=O)c2cccnc2N1)C1CCCCC1"
recorded_number = 1.47

[[record]]
compound = "C[C@@H](NC1=NS(=O)(=O)c2cccnc2N1)c1ccccc1"
recorded_number = 1.81

[[record]]
compound = "C[C@@H](NC1=NS(=O)(=O)c2cc(Cl)cnc2N1)c1ccccc1"
recorded_number = 1.59

[[record]]
compound = "CCC(C)NC1=NS(=O)(=O)c2cc(Cl)cnc2N1 (configuration not stated)"
recorded_number = 1.30

[[record]]
compound = "CC(C)NC1=NS(=O)(=O)c2cccnc2N1"
recorded_number = 2.12

[[record]]
compound = "C[C@@H](NC1=NS(=O)(=O)c2cc(Cl)cnc2N1)C1CCCCC1"
recorded_number = 0.54

[[record]]
compound = "O=S1(=O)N=C(NCC2CCCCC2)Nc2ncccc21"
recorded_number = 1.66


* * *

# Species on record: Rattus norvegicus
# assay_protocol: Concentration giving 50% relaxation of the 30 mM KCL-induced contraction of rat aorta rings
# Format: functional
# reported_conditions: read-out: ED50 (the source's name)
pEC50: −log10 of the molar value.
reported_endpoint: pEC50

[[record]]
compound = "C[C@H](NC1=NS(=O)(=O)c2cc(Cl)cnc2N1)C1CCCCC1"
reported_endpoint = "pEC50"
recorded_number = 5.42

[[record]]
compound = "C[C@H](NC1=NS(=O)(=O)c2cccnc2N1)c1ccccc1"
reported_endpoint = "pEC50"
recorded_number = 5.00

[[record]]
compound = "CC1=Nc2ccc(Cl)cc2S(=O)(=O)N1 [DIAZOXIDE]"
reported_endpoint = "pEC50"
recorded_number = 4.71

[[record]]
compound = "O=S1(=O)N=C(NCc2ccccc2)Nc2ncccc21"
reported_endpoint = "pEC50"
recorded_number = 4.66

[[record]]
compound = "O=S1(=O)NC(NCc2ccccc2)=Nc2ncc(Cl)cc21"
reported_endpoint = "pEC50"
recorded_number = 4.36

[[record]]
compound = "CCC(C)NC1=NS(=O)(=O)c2cccnc2N1 (configuration not stated)"
reported_endpoint = "pEC50"
recorded_number = 4.29

[[record]]
compound = "CC(C)C(C)NC1=NS(=O)(=O)c2cnccc2N1 (configuration not stated)"
reported_endpoint = "pEC50"
recorded_number = 3.81

[[record]]
compound = "CC(C)C(C)NC1=NS(=O)(=O)c2cccnc2N1 (configuration not stated)"
reported_endpoint = "pEC50"
recorded_number = 4.57

[[record]]
compound = "C[C@H](NC1=NS(=O)(=O)c2cc(Cl)cnc2N1)c1ccccc1"
reported_endpoint = "pEC50"
recorded_number = 4.67

[[record]]
compound = "CC(NC1=NS(=O)(=O)c2cccnc2N1)C(C)(C)C (configuration not stated)"
reported_endpoint = "pEC50"
recorded_number = 5.12

[[record]]
compound = "C[C@H](NC1=NS(=O)(=O)c2cccnc2N1)C1CCCCC1"
reported_endpoint = "pEC50"
recorded_number = 4.60

[[record]]
compound = "CC(N/C(=N\\C#N)Nc1ccncc1)C(C)(C)C (configuration not stated) [PINACIDIL ANHYDROUS]"
reported_endpoint = "pEC50"
recorded_number = 6.30


* * *

# Species on record: Rattus norvegicus
# assay_protocol: Insulin secretion from rat pancreatic islets (RIS) in the presence of 16.7 mM glucose at 50 uM
# Assay type: functional
Reported values of RIS for individual entries
reported_endpoint: RIS (%)

[[record]]
molecule = "CC1=NS(=O)(=O)c2cc(Cl)cnc2N1"
recorded_number = 87.4

[[record]]
molecule = "C[C@H](NC1=NS(=O)(=O)c2cccnc2N1)C1CCCCC1"
recorded_number = 76.2

[[record]]
molecule = "CC(C)C(C)NC1=NS(=O)(=O)c2cc(Cl)cnc2N1 (centres undefined)"
recorded_number = 59.3

[[record]]
molecule = "C[C@H](NC1=NS(=O)(=O)c2cc(Cl)cnc2N1)c1ccccc1"
recorded_number = 45.9

[[record]]
molecule = "CC(NC1=NS(=O)(=O)c2cccnc2N1)C(C)(C)C (centres undefined)"
recorded_number = 98.9

[[record]]
molecule = "CC(C)NC1=NS(=O)(=O)c2cc(Cl)cnc2N1"
recorded_number = 74.4

[[record]]
molecule = "O=S1(=O)NC(NCC2CCCCC2)=Nc2ncc(Cl)cc21"
recorded_number = 57.7

[[record]]
molecule = "C[C@@H](NC1=NS(=O)(=O)c2cc(Cl)cnc2N1)c1ccccc1"
recorded_number = 52.3

[[record]]
molecule = "CC1=Nc2ccc(Cl)cc2S(=O)(=O)N1 [DIAZOXIDE]"
recorded_number = 28.8

[[record]]
molecule = "C[C@@H](NC1=NS(=O)(=O)c2cccnc2N1)c1ccccc1"
recorded_number = 71.6

[[record]]
molecule = "CC(N/C(=N\\C#N)Nc1ccncc1)C(C)(C)C (centres undefined) [PINACIDIL ANHYDROUS]"
recorded_number = 92.1

[[record]]
molecule = "C[C@H](NC1=NS(=O)(=O)c2cccnc2N1)c1ccccc1"
recorded_number = 73.3

[[record]]
molecule = "CC(NC1=NS(=O)(=O)c2cc(Cl)cnc2N1)C(C)(C)C (centres undefined)"
recorded_number = 41.5

[[record]]
molecule = "CCC(C)NC1=NS(=O)(=O)c2cc(Cl)cnc2N1 (centres undefined)"
recorded_number = 62.7

[[record]]
molecule = "CCC(C)NC1=NS(=O)(=O)c2cccnc2N1 (centres undefined)"
recorded_number = 85.9

[[record]]
molecule = "O=S1(=O)N=C(NCc2ccccc2)Nc2ncccc21"
recorded_number = 86.2

[[record]]
molecule = "C[C@@H](NC1=NS(=O)(=O)c2cccnc2N1)C1CCCCC1"
recorded_number = 79.9

[[record]]
molecule = "O=S1(=O)NC(NCc2ccccc2)=Nc2ncc(Cl)cc21"
recorded_number = 74.1

[[record]]
molecule = "C[C@H](NC1=NS(=O)(=O)c2cc(Cl)cnc2N1)C1CCCCC1"
recorded_number = 11.8

[[record]]
molecule = "CC(C)C(C)NC1=NS(=O)(=O)c2cnccc2N1 (centres undefined)"
recorded_number = 7.1

[[record]]
molecule = "CC(C)NC1=NS(=O)(=O)c2cccnc2N1"
recorded_number = 78.7

[[record]]
molecule = "O=S1(=O)N=C(NCC2CCCCC2)Nc2ncccc21"
recorded_number = 94.2

[[record]]
molecule = "C[C@@H](NC1=NS(=O)(=O)c2cc(Cl)cnc2N1)C1CCCCC1"
recorded_number = 6.7

[[record]]
molecule = "CC(C)C(C)NC1=NS(=O)(=O)c2cccnc2N1 (centres undefined)"
recorded_number = 87.9


* * *

# Species on record: Rattus norvegicus
# assay_protocol: Effect on contractile activity of 30 mM potassium-Depolarized rat aorta incubated in the absence of Glibenclamide
# Format: functional
# reported_conditions: read-out: ED50 (the source's name)
Reported values of EC50 for individual entries
reported_endpoint: EC50

[[record]]
molecule = "CC(C)C(C)NC1=NS(=O)(=O)c2cc(Cl)cnc2N1 (configuration not stated)"
result = "8.2 µM"

[[record]]
molecule = "CC(NC1=NS(=O)(=O)c2cccnc2N1)C(C)(C)C (configuration not stated)"
result = "10.1 µM"

[[record]]
molecule = "CC1=Nc2ccc(Cl)cc2S(=O)(=O)N1 [DIAZOXIDE]"
result = "19.5 µM"

[[record]]
molecule = "C[C@@H](NC1=NS(=O)(=O)c2cc(Cl)cnc2N1)C1CCCCC1"
result = "3.7 µM"

[[record]]
molecule = "CC(NC1=NS(=O)(=O)c2cc(Cl)cnc2N1)C(C)(C)C (configuration not stated)"
result = "1.6 µM"

[[record]]
molecule = "CC(N/C(=N\\C#N)Nc1ccncc1)C(C)(C)C (configuration not stated) [PINACIDIL ANHYDROUS]"
result = "0.2 µM"

[[record]]
molecule = "CC(C)C(C)NC1=NS(=O)(=O)c2cccnc2N1 (configuration not stated)"
result = "27.1 µM"


Numbers sourced from ChEMBL document CHEMBL1133004.
